- Test system: LXRb:RXRa (NR concentration 270 nM, RXRa partner concentration 90 nM)
- testName: PBM binding z-score (relative to random genomic background probes); higher = stronger binding; sequences stand for … in GC…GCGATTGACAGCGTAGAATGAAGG
Quick reference for PBM binding z-score among some sequences
Reply with the value as a number alone.

Some entries whose results are on file:
[[record]]
sequenceinput = "CGAACTAGGCCATCCAGGACAGTGAATACATTGA"
experimentalsystem = "LXRb:RXRa (NR concentration 270 nM, RXRa partner concentration 90 nM)"
valuemeasured = -0.306

[[record]]
sequenceinput = "CTCGAAAGGTCGTGCTCAGGTGAGCATACCAAAC"
experimentalsystem = "LXRb:RXRa (NR concentration 270 nM, RXRa partner concentration 90 nM)"
valuemeasured = 3.23


input: Query the reported PBM binding z-score for LXRb:RXRa (NR concentration 270 nM, RXRa partner concentration 90 nM); item: CGTCCAAGGCCAATGCTAGGTCAGTGAAAGCATT
output: -0.036

input: Also check AGAGCGAGGGCAATGAGTTGATAGCACGGGTGGC
output: -0.283

input: Also check TCTGCTAGGTCAGATGGTCAGCTAACGAGCTGCC
output: 0.356

input: Also check CCTTACGGGTCACTGACAGGATATAGCATTTGGA
output: 3.28

input: Also check CCGCCTAGGTCAGGGCCAGTATAGGAGGAACGTT
output: 1.1

input: Also check CTCGAAAGGTCGGTTGACGTGAGTATACGGATAA
output: 1.44

input: Also check TGAATGTGGTTAAAGATCAGGGAACGTGGCGTCG
output: -0.186

input: Also check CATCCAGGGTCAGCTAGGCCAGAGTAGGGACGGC
output: 2.1

input: Also check AGTCAAAGATCAGGACGAGGTAACGTAAAGCACG
output: -0.362

input: Also check AGAATGAGGTTATACGTAGATCAGGGAGGAAAGT
output: 1.53

====

Quick reference for PBM binding z-score among some sequences
- System: RARg:RXRa (NR concentration 270 nM, RXRa partner concentration 90 nM)
- testName: PBM binding z-score (relative to random genomic background probes); higher = stronger binding; sequences stand for … in GC…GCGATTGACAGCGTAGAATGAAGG
Reply with the value as a number alone.

[[record]]
sequenceinput = "CCAGACAGATGAAAGGTAACTCAGTCTGGTACGC"
experimentalsystem = "RARg:RXRa (NR concentration 270 nM, RXRa partner concentration 90 nM)"
valuemeasured = 0.253

[[record]]
sequenceinput = "ATCTCTAGGTAACAAGTTCACTGAAAGAGAGGAC"
experimentalsystem = "RARg:RXRa (NR concentration 270 nM, RXRa partner concentration 90 nM)"
valuemeasured = 2.27


Here's the next entry for you.
input: // lookup PBM binding z-score for ATAACGAGGGCAATGAGTTGATAGCACGGGTGGC
output: 1.46

====

Quick reference for PBM binding z-score among some sequences
- System: PPARg:RXRa (NR concentration 180 nM, RXRa partner concentration 90 nM)
- testName: PBM binding z-score (relative to random genomic background probes); higher = stronger binding; sequences stand for … in GC…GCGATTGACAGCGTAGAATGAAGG
Reply with the value as a number alone.

[[record]]
sequenceinput = "CCTGCTAGGTCATGCTCAGCTAATCTACAGTATG"
experimentalsystem = "PPARg:RXRa (NR concentration 180 nM, RXRa partner concentration 90 nM)"
valuemeasured = 1.9

[[record]]
sequenceinput = "CGTCCAAGGTCAGCAGGTCTGTGAAAGCGACGTG"
experimentalsystem = "PPARg:RXRa (NR concentration 180 nM, RXRa partner concentration 90 nM)"
valuemeasured = 2.65

[[record]]
sequenceinput = "CCTATTAGTTGACCATAAAGGCAACCGAAGCTCG"
experimentalsystem = "PPARg:RXRa (NR concentration 180 nM, RXRa partner concentration 90 nM)"
valuemeasured = 0.377

[[record]]
sequenceinput = "TAGCCTAGGTCATTGGGCCAGTTTAGTACGCATC"
experimentalsystem = "PPARg:RXRa (NR concentration 180 nM, RXRa partner concentration 90 nM)"
valuemeasured = 3.49

[[record]]
sequenceinput = "CCTCGGAGGACAACAGGAGGTCAGAGCGGCCAGA"
experimentalsystem = "PPARg:RXRa (NR concentration 180 nM, RXRa partner concentration 90 nM)"
valuemeasured = 0.411

[[record]]
sequenceinput = "ATATGTAGGTTACATCCGGCTCATTCAGGCTATG"
experimentalsystem = "PPARg:RXRa (NR concentration 180 nM, RXRa partner concentration 90 nM)"
valuemeasured = 4.81

[[record]]
sequenceinput = "GCTAGCAGGCCATTTGGGGCACTCAATGACGGGC"
experimentalsystem = "PPARg:RXRa (NR concentration 180 nM, RXRa partner concentration 90 nM)"
valuemeasured = 0.377

[[record]]
sequenceinput = "CCTTACGGGTCACGATGTTATAGCACGACGAGCG"
experimentalsystem = "PPARg:RXRa (NR concentration 180 nM, RXRa partner concentration 90 nM)"
valuemeasured = 6.19


input: Query the reported PBM binding z-score for PPARg:RXRa (NR concentration 180 nM, RXRa partner concentration 90 nM); item: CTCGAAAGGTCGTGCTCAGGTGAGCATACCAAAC
output: 3.03

input: Also check CAGCCTAGGTCAGGGCCAGTGTAGGAGGAACGTT
output: 0.721

input: Also check AGAATGAGGTTATACGTAGATCAGGGCAGAAAGT
output: 1.83

input: Also check TATACAGGGTCAAATGCCAGAGTACGAATGTCGA
output: 7.57

input: Also check AGAATGAGGTTACCAATGATCAGGGAAACGCTTG
output: 2.55

input: Also check TCTATTAGTTGAAGGGCAAGCGACGAGTCCGTTT
output: 0.0198

input: Also check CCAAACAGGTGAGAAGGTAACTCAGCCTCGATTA
output: 0.64

input: Also check ATCTCCAGGTAAGACTCAGTTCAGTGAAGAACGC
output: 0.0991

input: Also check GCGACTGGGGCAAACCAGGTTACCATAAGGTTGG
output: 1.43

input: Also check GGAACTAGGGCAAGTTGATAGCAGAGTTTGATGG
output: 3.63

input: Also check ATAATGAGGTTATTAAGATCAGGGAATTGCGGTC
output: 1.91

input: Also check TAGCCTAGGTCTGATCGGGCCAGTATACGCTATA
output: 0.0558

input: Also check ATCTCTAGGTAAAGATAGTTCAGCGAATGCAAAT
output: 0.334

input: Also check CGAACTAGGTCATTGACAGGACATTGAATAGTAA
output: 7.27

input: Also check AGAATGAGGTTAAGATCAGCGAAACAGAATACAT
output: 2.3

input: Also check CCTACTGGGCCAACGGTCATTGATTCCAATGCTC
output: 5.23

input: Also check ACTAGTTGGTCAGCTGAGGTCACGCACAATTCGG
output: 2.12

input: Also check TCTAGTTGGTCAAAGGTCGCACACTCGAAATGCG
output: 10.3

====

- Test system: VDR homodimer (NR concentration 270 nM)
- testName: PBM binding z-score (relative to random genomic background probes); higher = stronger binding; sequences stand for … in GC…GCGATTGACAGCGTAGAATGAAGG
Binary classification by PBM binding z-score, with 1 as an inclusive lower bound for 1.0; all other cases are 0.0.

[[record]]
sequenceinput = "CCTAGCAGGCCAATCTGGGTCACTCACGGCTTGA"
labelclass = 0.0

[[record]]
sequenceinput = "GCTAGTTGGGCAGTAAAAGGTCACACACCGGTCG"
labelclass = 1.0

[[record]]
sequenceinput = "CGCCAAAGTTCAACTAAGGTAACGTAAAGCACGC"
labelclass = 1.0

[[record]]
sequenceinput = "CCGAATGGGGCAAGGTTACCATAACGCACAGCCA"
labelclass = 0.0

[[record]]
sequenceinput = "CCTAGCAGGCCAATCTGGGCCACTCAAGGCTTGA"
labelclass = 0.0

[[record]]
sequenceinput = "TCTAGTTGGTCACGGAGGCCACACACGACGGGTA"
labelclass = 0.0

[[record]]
sequenceinput = "TCTTTTAGTTGAAGGGCAACCGACGAGTCCGTTT"
labelclass = 1.0

[[record]]
sequenceinput = "CCTATTAGTAGACCATAAGGGCAACCGAAGCTCG"
labelclass = 0.0


input: Quick check: does AGTCAAAGTTTACTAGGTAACGTAAGATTCAGCT have PBM binding z-score greater than or equal to 1?
output: 0.0

input: Also check TCCAGTAGGTTACCAATGGGGCATTCAGCTTTCT
output: 0.0

input: Also check CAAACTAGGTCAAGAGGTCAAAGTGCGCTTCCCG
output: 1.0

input: Also check CGAACTAGGTCATTGACAGGTCAGTGAATAGTAA
output: 1.0

input: Also check CGTCCAAGGTCATGGTCAGTGAAAGAGACTCGAA
output: 1.0

input: Also check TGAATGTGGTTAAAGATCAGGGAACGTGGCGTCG
output: 0.0

input: Also check ATTAGTTGGTCAGCTGAGGTCACACACAATTCGG
output: 1.0

input: Also check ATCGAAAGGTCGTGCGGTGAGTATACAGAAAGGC
output: 1.0

input: Also check TCAGACAGGCGAAGGTAACTCAGGTACGCAGTCG
output: 0.0

input: Also check CGTCCAAGTTCAACTAAGGTAACGTAAAGCACGC
output: 1.0

input: Also check TGTCAAAGTTCAAAGGTAACGCAAGTATCCACAC
output: 1.0

input: Also check ATCGAAAGGTCGATGAGGTGAGTATACACCGTTT
output: 1.0

input: Also check TAGCCTAGGTCCTGGGCCAGTATACCACGCGAAC
output: 0.0

input: Also check GCTTGTAGATCTAGGTTAAGAAAGACTAAGCTAA
output: 0.0

input: Also check ATATGTAGGTTACATCCGGGCCATTCAGGCTATG
output: 0.0

input: Also check AGAACGAGGGCACGCTGAGTTGATCGCAGAGTAG
output: 1.0

input: Also check AGTCAAAGTTCAGGACGAGGTATCGTAAAGCACG
output: 1.0

input: Also check CGAACTAGGTCAAGGACATTGAATCTCCGCACGC
output: 1.0
